Target Desc: α5-GABAA receptor (Homo sapiens, UniProt P18507+P31644)
Construct: expressed in transfected cells; host or cells: HEK293, monoclonal stably transfected line
Sequence (P31644 32-462): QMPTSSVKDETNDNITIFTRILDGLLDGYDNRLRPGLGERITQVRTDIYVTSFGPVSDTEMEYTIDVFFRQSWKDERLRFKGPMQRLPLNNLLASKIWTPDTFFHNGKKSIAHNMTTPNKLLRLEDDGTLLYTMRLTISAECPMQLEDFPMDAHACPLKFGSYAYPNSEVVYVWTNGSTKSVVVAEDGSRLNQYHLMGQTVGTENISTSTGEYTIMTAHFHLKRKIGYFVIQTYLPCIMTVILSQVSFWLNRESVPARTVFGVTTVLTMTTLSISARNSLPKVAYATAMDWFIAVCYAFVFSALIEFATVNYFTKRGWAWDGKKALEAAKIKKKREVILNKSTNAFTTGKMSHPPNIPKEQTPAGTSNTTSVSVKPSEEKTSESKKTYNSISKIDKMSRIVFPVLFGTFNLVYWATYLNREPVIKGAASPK
Sequence (P28472 26-473 partner): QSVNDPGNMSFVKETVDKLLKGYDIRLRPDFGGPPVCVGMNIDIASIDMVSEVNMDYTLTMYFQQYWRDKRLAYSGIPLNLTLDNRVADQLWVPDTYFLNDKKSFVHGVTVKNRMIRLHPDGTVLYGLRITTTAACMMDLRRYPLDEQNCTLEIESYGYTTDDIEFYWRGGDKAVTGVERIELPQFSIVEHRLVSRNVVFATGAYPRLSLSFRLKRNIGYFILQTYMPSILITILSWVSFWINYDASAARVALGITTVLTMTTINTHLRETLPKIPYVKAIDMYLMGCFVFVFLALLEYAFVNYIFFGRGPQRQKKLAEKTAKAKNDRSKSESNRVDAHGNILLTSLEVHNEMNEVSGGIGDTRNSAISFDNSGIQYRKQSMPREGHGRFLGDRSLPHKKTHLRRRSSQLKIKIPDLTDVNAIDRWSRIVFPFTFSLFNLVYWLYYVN
Sequence (P18507 40-467 isoform P18507-1 limits assumed): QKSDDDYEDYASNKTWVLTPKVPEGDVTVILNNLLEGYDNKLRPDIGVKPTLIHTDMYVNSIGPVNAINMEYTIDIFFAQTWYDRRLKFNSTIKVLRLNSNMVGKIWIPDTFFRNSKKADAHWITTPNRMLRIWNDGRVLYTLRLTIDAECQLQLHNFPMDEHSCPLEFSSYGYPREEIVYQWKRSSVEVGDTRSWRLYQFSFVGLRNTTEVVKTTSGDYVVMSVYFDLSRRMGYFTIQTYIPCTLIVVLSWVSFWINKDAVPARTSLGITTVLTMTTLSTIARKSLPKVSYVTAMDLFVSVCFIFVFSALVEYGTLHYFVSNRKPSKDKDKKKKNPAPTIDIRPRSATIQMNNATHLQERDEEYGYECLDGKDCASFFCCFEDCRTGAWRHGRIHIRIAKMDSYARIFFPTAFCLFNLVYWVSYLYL
Assay Notes: Cell-level screening: whole cell patch clamp, inverse agonist efficacy on α5-GABAA receptor expressed in HEK293
Type: cell-based
Stated Conditions: drug 100 nM, GABA 0.05 μM, HEK293 expressing α5, β3 and γ2 subunits, clamped at −60 mV; read-out: Compound inverse agonist efficacy %
Quantity Kind: inhibition at 0.1 µM (%)

CCN1CCc2nc(COc3nn4c(-c5cc(C)on5)nnc4cc3OC)ccc2C1 | 47.6
COc1cc2nnc(-c3cc(C)on3)n2nc1OCc1ccc(OCC2(C)COC2)cn1 | 32.9
CCN1CC(F)(c2ccc(COc3nn4c(-c5cc(C)on5)nnc4cc3OC)nc2)C1 | 41.8

----------
Target Desc: α5-GABAA receptor (Homo sapiens, UniProt P18507+P31644)
Construct: expressed in transfected cells; host or cells: HEK293, monoclonal stably transfected line
Assay Notes: Cell-level screening: whole cell patch clamp, inverse agonist efficacy on α5-GABAA receptor expressed in HEK293
Format: cell-based
Stated Conditions: drug 100 nM, GABA 0.05 μM, HEK293 expressing α5, β3 and γ2 subunits, clamped at −60 mV; read-out: Compound inverse agonist efficacy %
Quantity Kind: inhibition at 0.1 µM (%)

The examples below pair each entry with its known result.
COCCn1ccc2nc(COc3nn4c(-c5cc(C)on5)nnc4cc3OC)ccc2c1=O [Embodiment 147] | 39.8
CCNC(=O)c1ccc(COc2nn3c(-c4cc(C)on4)nnc3cc2OC)nc1 [Embodiment 35] | 39.3
COc1cc2nnc(-c3cc(C)on3)n2nc1OCc1cnccn1 [Embodiment 19] | 35.4
COCCOCc1ccc(COc2nn3c(-c4cc(C)on4)nnc3cc2OC)nn1 [Embodiment 166] | 49.9
COc1cc2nnc(-c3cc(C)on3)n2nc1OCc1ccc2nn(C3CCOC3)cc2n1 (stereo not shown) [Embodiment 231] | 40.3

[A] CCN1Cc2ccc(COc3nn4c(-c5cc(C)on5)nnc4cc3OC)nc2C1 [Embodiment 68]
[B] COc1cccc(COc2nn3c(-c4cc(C)on4)nnc3cc2OC)n1 [Embodiment 38]
[C] COc1cc2nnc(-c3cc(C)on3)n2nc1OCc1ccc2nn(Cc3cc(C)on3)cc2n1 [Embodiment 225]
Order field: inhibition at 0.1 µM | Direction: descending (largest first) Would you mind listing the labels in the order requested? C, A, B

----------
Assay Notes: Rat liver microsome stability (RLM) experiment
Type: in vitro ADME
Stated Conditions: rat liver microsomal stability, Table 4; 0.5 mg protein/mL, NADPH, 37° C., 0-45 min
Method: Effect embodiment 3 Rat liver microsome stability (RLM) experiment Rat liver microsomes (Xenotech, item No. R1000, lot No. 1310030), 100 mM potassium phosphate buffer solution (pH 7.4), 10 mM magnesium chloride. Compound preparation: 5 μL of compound DMSO mother liquor (10 mM) was added to 495 μL of methanol to obtain an intermediate solution with a compound concentration of 100 μM. […]
Quantity Kind: RLM (µL/min/mg)

COc1cc2nnc(-c3cc(C)on3)n2nc1OCc1ccc(OC2COC2)nn1 [Embodiment 153] | 5
COc1cc2nnc(-c3cc(C)on3)n2nc1OCc1ccc2nc(C#N)cn2n1 [Embodiment 211] | 5
COc1cc2nnc(-c3cc(C)on3)n2nc1OCc1ccc2c(n1)CCN(C1CCOC1)C2 (stereo not drawn) [Embodiment 183] | 5

----------
Target Desc: α5-GABAA receptor (Homo sapiens, UniProt P18507+P31644)
Construct: expressed in transfected cells; host or cells: HEK293, monoclonal stably transfected line
Assay Notes: Cell-level screening: whole cell patch clamp, inverse agonist efficacy on α5-GABAA receptor expressed in HEK293
Format: cell-based
Stated Conditions: drug 100 nM, GABA 0.05 μM, HEK293 expressing α5, β3 and γ2 subunits, clamped at −60 mV; read-out: Compound inverse agonist efficacy %
Quantity Kind: inhibition at 0.1 µM (%)

COc1cc2nnc(-c3cc(C)on3)n2nc1OCc1ccc(OCC2CCOC2)nn1 (stereo not drawn) | 36.6
COCc1cn2nc(COc3nn4c(-c5cc(C)on5)nnc4cc3OC)ccc2n1 | 59.5
COc1cc2nnc(-c3cc(C)on3)n2nc1OCc1ccc2c(cnn2Cc2cc(C)on2)n1 | 46.7
COc1cc2nnc(-c3cc(C)on3)n2nc1OCc1ccc2c(n1)CCN(C(CO)CO)C2 | 45.6
COCCCC(=O)N1CCc2nc(COc3nn4c(-c5cc(C)on5)nnc4cc3OC)ccc2C1 | 52.4
COc1cc2nnc(-c3cc(C)on3)n2nc1OCc1cccc2cnnn12 | 48.2

----------
Assay Notes: Thermodynamic solubility in simulated intestinal fluid (TS in FaSSIF)
Assay type: physicochemical
Stated Conditions: thermodynamic from solid, 37° C.
Procedure: Simulated intestinal fluid FaSSIF: 54.76 mg of FaSSIF-V2 (Biorelevant, batch. V2FAS-0619-A, lot. V2FAS01) was weighed and added to 15 mL of a buffer solution. After dissolving, the solution was supplemented to 30 mL, and put at room temperature for 1 hour before use. […] Thermodynamic solubility in intestinal fluid (TS in FaSSIF) was simulated. […] The filtrate was detected by high performance liquid chromatograph (UV).
Quantity Kind: solubility thermodynamic at 4 h (µg/mL)

COCCn1cc2nc(COc3nn4c(-c5cc(C)on5)nnc4cc3OC)ccc2n1 | 43.5
COCc1cc(-c2nnc3cc(OC)c(OCc4ccccn4)nn23)no1 | 55.2

[I] COc1cc2nnc(-c3cc(C)on3)n2nc1OCc1ccc(OC2CCOC2)nn1 (stereo not shown)
[II] COc1cc2nnc(-c3cc(C)on3)n2nc1OCc1ccc(CN2CCC2)cn1
Which of the two items, I and II , has the greater recorded solubility thermodynamic at 4 h? Answer with the label corresponding to your selection. II
(II: 306 µg/mL, I: 177 µg/mL)

[a] CCN1CC(F)(c2ccc(COc3nn4c(-c5cc(C)on5)nnc4cc3OC)nc2)C1
[b] COc1cc2nnc(-c3cc(C)on3)n2nc1OCc1cnnn1C
[c] CCNCc1ccc(COc2nn3c(-c4cc(C)on4)nnc3cc2OC)nc1
Arrange by solubility thermodynamic at 4 h, high to low. // respond by listing labels in the order requested c, a, b

----------
Target Desc: α5-GABAA receptor (Homo sapiens, UniProt P18507+P31644)
Construct: expressed in transfected cells; host or cells: HEK293, monoclonal stably transfected line
Assay Notes: Cell-level screening: whole cell patch clamp, inverse agonist efficacy on α5-GABAA receptor expressed in HEK293
Type: cell-based
Stated Conditions: drug 100 nM, GABA 0.05 μM, HEK293 expressing α5, β3 and γ2 subunits, clamped at −60 mV; read-out: Compound inverse agonist efficacy %
Quantity Kind: inhibition at 0.1 µM (%)

Observe how each entry below is paired with its result.
COc1cc2nnc(-c3cc(C)on3)n2nc1OCc1ccc(C2=CCCCC2)cn1 [Embodiment 13] | 29
COCCn1ccc2ccc(COc3nn4c(-c5cc(C)on5)nnc4cc3OC)nc21 [Embodiment 92] | 52.8
COc1cc2nnc(-c3cc(C)on3)n2nc1OCc1ccc2nn(C3COC3)c(C)c2n1 [Embodiment 258] | 54.7
COc1cc2nnc(-c3cc(C)on3)n2nc1OCc1ccc2c(n1)CCN(C(=O)C(C)(C)C)C2 [Embodiment 206] | 44.7
COc1cc2nnc(-c3cc(C)on3)n2nc1OCc1ccc2c(cnn2C2CCOC2)n1 (centres unmarked) [Embodiment 232] | 53.4
COc1cc2nnc(-c3cc(C)on3)n2nc1OCc1ccc(C(=O)NCC(F)(F)F)cn1 [Embodiment 11] | 35.4
COc1cc2nnc(-c3cc(C)on3)n2nc1OCc1ccc(C2(F)CNC2)cn1 [Embodiment 71] | 40.7
COc1cc2nnc(-c3cc(C)on3)n2nc1OCc1ccc2c(n1)CCN(C1(CC#N)COC1)C2 [Embodiment 114] | 36

[A] COc1cc2nnc(-c3cc(C)on3)n2nc1OCc1ccc2c(cnn2Cc2ccccc2)n1 [Embodiment 222]
[B] CCNC(=O)c1ccc(COc2nn3c(-c4cc(C)on4)nnc3cc2OCC)nc1 [Embodiment 12]
Compare the recorded inhibition at 0.1 µM of A and B ; state which is larger. To answer, give the label that identifies your chosen option. A
(A: 44.3%, B: 29.6%)

----------
Target Desc: α5-GABAA receptor (Homo sapiens, UniProt P18507+P31644)
Construct: expressed in transfected cells; host or cells: HEK293, monoclonal stably transfected line
Assay Notes: Cell-level screening: whole cell patch clamp, inverse agonist efficacy on α5-GABAA receptor expressed in HEK293
Format: cell-based
Stated Conditions: drug 100 nM, GABA 0.05 μM, HEK293 expressing α5, β3 and γ2 subunits, clamped at −60 mV; read-out: Compound inverse agonist efficacy %
Quantity Kind: inhibition at 0.1 µM (%)

COc1cc2nnc(-c3cc(C)on3)n2nc1OCc1ccc2c(n1)CCN(S(=O)(=O)N(C)C)C2 | 52.5
COc1cc2nnc(-c3cc(C)on3)n2nc1OCc1ccc2c(ccn2C2COC2)n1 | 47.4
COc1cc2nnc(-c3cc(C)on3)n2nc1OCc1ccc2nn(C)cc2n1 | 57.9
COc1cc2nnc(-c3cc(C)on3)n2nc1OCc1ccc2ccn(C3CCOCC3)c2n1 | 42.2
